FYI, the data here is from patent US20140178332A1.

# system-under-test: T1, recombinant purified human IL-12 p70 (human, UniProt P29459 23-219)
# T1 construct: Disulfide-linked heterodimer of p35 and p40; also called hIL-12; Hu IL-12
# T1 sequence 1: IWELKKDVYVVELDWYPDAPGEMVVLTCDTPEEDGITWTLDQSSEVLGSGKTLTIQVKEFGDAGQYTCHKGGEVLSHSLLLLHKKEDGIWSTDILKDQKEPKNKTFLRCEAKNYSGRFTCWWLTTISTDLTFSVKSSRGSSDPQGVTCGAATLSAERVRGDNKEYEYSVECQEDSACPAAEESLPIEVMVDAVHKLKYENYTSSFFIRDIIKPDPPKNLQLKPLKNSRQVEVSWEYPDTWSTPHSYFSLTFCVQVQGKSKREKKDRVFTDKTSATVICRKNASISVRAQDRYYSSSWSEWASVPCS
# T1 sequence 2: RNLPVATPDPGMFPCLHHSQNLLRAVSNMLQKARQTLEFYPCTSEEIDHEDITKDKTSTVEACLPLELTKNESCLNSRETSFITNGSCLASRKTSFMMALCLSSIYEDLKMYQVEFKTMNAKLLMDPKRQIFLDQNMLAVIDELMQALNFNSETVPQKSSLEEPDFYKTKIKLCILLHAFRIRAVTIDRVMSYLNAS
# assay-protocol: SPR (Biacore) as in Example 1.1.B, human IL-12p70
reported-endpoint: pKd
Conceptually, pKd converts a concentration in mol/L into minus its log10.

1) CDR grafted anti IL-12p40 antibody 1A6.1 (antibody, human IgG1, kappa, L234A L235A, V domains shown, Full-length CDR-grafted antibody, COS cells) VH: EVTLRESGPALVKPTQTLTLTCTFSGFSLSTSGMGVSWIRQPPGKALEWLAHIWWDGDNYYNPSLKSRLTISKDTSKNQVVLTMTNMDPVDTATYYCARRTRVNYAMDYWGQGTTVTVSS VL: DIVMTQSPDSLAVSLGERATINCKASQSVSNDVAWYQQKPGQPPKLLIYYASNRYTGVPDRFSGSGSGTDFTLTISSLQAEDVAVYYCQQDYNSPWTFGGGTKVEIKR | 9.57

Please examine the following record next.
Req: Fill in: pKd of CDR grafted anti IL-12p40 antibody 8E1.1 (antibody, human IgG1, kappa, L234A L235A, V domains shown, Full-length CDR-grafted antibody, COS cells) VH: EVQLVESGGGLVQPGGSLRLSCAASGFTFSDYGMVWVRQAPGKGLEWVGSISSGSSNIYYADTVKGRFTISRDDSKNSLYLQMNSLKTEDTAVYYCARNPYWGQGTTVTVSS VL: DIQMTQSPSSLSASVGDRVTITCKASQNVGTNVAWYQQKPEKAPKSLIYSASHRYSGVPSRFSGSGSGTDFTLTISSLQPEDFATYYCQQYNSYPLTFGGGTKVEIKR is ___
Resp: 8.77
